target.or.test.system: HLA-DRB1*04:01 (Homo sapiens, UniProt P01903+P01911, A100K/A169T/F76Y/I96L/K127E/L162R/M171V/N62H/P40V/Q125Y/R42H/S133A/S149N/S66Y/V115G/V209L/W38E)
assay.overview: Peptide competition binding assay to HLA-DRB1*04:01
test.settings: 15-mer T cell peptides; EC50 cutoff for measurable binding 50 μM
observation.type: Binding to HLA-DRB1*04:01 (in words)

// known answers, use as guide
residue.sequence	observation.type	recorded.value
CQGQYELRVDLRDHGETAFC [arg-TNC56, Cys-flanked arginine TNC56 peptide used in ELISA]	Binding to HLA-DRB1*04:01 (in words)	did not
CVSDATPDGFRLSWTADEGC [arg-TNC45, Cys-flanked arginine TNC45 peptide used in ELISA]	Binding to HLA-DRB1*04:01 (in words)	bound
CPTAQVESFRITYVPITGGC [arg-TNC50, Cys-flanked arginine TNC50 peptide used in ELISA]	Binding to HLA-DRB1*04:01 (in words)	bound
CEYEVSLISRRGDMSSNPAC [arg-TNC17, Cys-flanked arginine TNC17 peptide used in ELISA]	Binding to HLA-DRB1*04:01 (in words)	did not

Let us examine a further case.
Using the record for CTPLAKFDRYRLNYSLPTGC [arg-TNC22, Cys-flanked arginine TNC22 peptide used in ELISA] , report its Binding to HLA-DRB1*04:01 (in words).
bound
